Give measured LOGP_HCOOH for each item. Keep answers brief.
assay: log P by HPLC on a reversed-phase column (C 18), EEC Directive 79/831 Annex V.A8; type: physicochemical; conditions: acidic range, pH 2.7, 0.1% aqueous formic acid/acetonitrile; 55° C.
Respond with the number and no other words.

Exam item: Recorded LOGP_HCOOH of CC[S+]([O-])c1cc(Cl)ccc1-c1nc2cc(C(F)(F)F)ncc2n1C (stereo not shown) , please.
Marked response: 2.45

Exam item: Likewise for CCS(=O)(=O)c1cc(C(F)(F)F)cnc1-c1nc2cc(-n3cnc(C(F)(F)F)c3)ncc2n1C ?
Marked response: 2.94

Exam item: Likewise for CCSc1cc(C(F)(F)F)cnc1-c1nc2cc(-c3ccc(C(F)(F)F)cc3)ncc2n1C ?
Marked response: 3.93

Exam item: Likewise for CC(C)S(=O)(=O)c1cc(C(F)(F)F)cnc1-c1nc2cc(C(F)(F)F)ncc2n1C ?
Marked response: 3.26

====

assay: log P by HPLC on a reversed-phase column (C 18), EEC Directive 79/831 Annex V.A8; format: physicochemical; conditions: neutral range, pH 7.8, 0.001 molar aqueous ammonium hydrogencarbonate/acetonitrile; 55° C.
property_label: LOGP_NEUTRAL
Respond with the number and no other words.

Exam item: Recorded LOGP_NEUTRAL of CCSc1cc(C(F)(F)F)cnc1-c1nc2cc(-n3cc(C(F)(F)F)cn3)ncc2n1C [Example I-65] , please.
Marked response: 4.31

Exam item: Likewise for CC(C)[S+]([O-])c1cc(C(F)(F)F)cnc1-c1nc2cc(C(F)(F)F)ncc2n1C (centres unmarked) [Example I-8] ?
Marked response: 3.46

Exam item: Likewise for Cn1c(-c2ccc(Cl)cc2[S+](C)[O-])nc2cc(C(F)(F)F)ncc21 (centres unmarked) [Example I-10] ?
Marked response: 2.08

Exam item: Likewise for CC[S+]([O-])c1cccnc1-c1nc2cc(C(F)(F)C(F)(F)F)ncc2n1C (centres unmarked) [Example I-61] ?
Marked response: 2.63

Exam item: Likewise for CC[S+]([O-])c1cc(Cl)ccc1-c1nc2cc(C(F)(F)F)ncc2n1C (centres unmarked) [Example I-44] ?
Marked response: 2.36

Exam item: Likewise for CC[S+]([O-])c1cccnc1-c1nc2cc(C(F)(F)F)ncc2n1C (centres unmarked) [Example I-33] ?
Marked response: 2.11

Exam item: Likewise for CSc1cc(Cl)ccc1-c1nc2cc(C(F)(F)F)ncc2n1C [Example I-25] ?
Marked response: 2.97

Exam item: Likewise for CCC[S+]([O-])c1cc(C(F)(F)F)cnc1-c1nc2cc(C(F)(F)F)ncc2n1C (centres unmarked) [Example I-39] ?
Marked response: 3.45

====

test: log P by HPLC on a reversed-phase column (C 18), EEC Directive 79/831 Annex V.A8; assay type: physicochemical; conditions: neutral range, pH 7.8, 0.001 molar aqueous ammonium hydrogencarbonate/acetonitrile; 55° C.
Give measured LOGP_NEUTRAL for each item. Keep answers brief.
Respond with the number and no other words.

Exam item: Recorded LOGP_NEUTRAL of COc1ccc(S(C)(=O)=O)c(-c2nc3cc(C(F)(F)F)ncc3n2C)n1 , please.
Marked response: 2.20

Exam item: Likewise for CCSc1ccccc1-c1nc2cc(C(F)(F)F)ncc2n1C ?
Marked response: 2.87

Exam item: Likewise for CCS(=O)(=O)c1cccnc1-c1nc2cc(C(F)(F)C(F)(F)F)ncc2n1C ?
Marked response: 2.46

Exam item: Likewise for Cn1c(-c2ncc(C(F)(F)F)cc2S(=O)(=O)CCF)nc2cc(C(F)(F)F)ncc21 [Example I-54] ?
Marked response: 3.07
